- System: Listeria innocua 166
- experiment.notes: Experiment 3: detecting an esterase activity in liquid medium (API-type strips)
- Assay type: cell-based
- Parameters: key: —: the symbol “-” corresponds to the absence of color or intensity; 0 corresponds to no activity; 0.1 corresponds to a trace of color; 0.5 corresponds to very pale coloration; 1 corresponds to clear but low-intensity coloration; 1.5 corresponds to a degree of coloration intermediate between scores 1 and 2; 2 corresponds to clear coloration of moderate intensity; 2.5 corresponds to a degree of coloration intermediate between scores 2 and 3; 3 corresponds to intense coloration; 3.5 corresponds to a degree of coloration intermediate between scores 3 and 4; 4 corresponds to very intense coloration
- details: IT 8 h, 37° C.
readout.kind: I (intensity of the color)
The reply should be a number, written without any unit.

In: What does the record list as I (intensity of the color) for CC(=O)Oc1c[nH]c2ccccc12 [Y-C2, 3-Indolyl acetate] ?
Out: 4

In: What does the record list as I (intensity of the color) for CC(=O)Oc1c[nH]c2ccc(Br)c(Cl)c12 [X-C2, 5-Bromo-4-chloro-3-indolyl acetate] ?
Out: 4

Here's the next entry for you.
In: What does the record list as I (intensity of the color) for CCCC(=O)Oc1c[nH]c2ccc(Br)c(Cl)c12 [X-C4, 5-Bromo-4-chloro-3-indolyl butyrate] ?
Out: 2

---

- Test system: Listeria monocytogenes ATCC 19115
- experiment.notes: Experiment 3: detecting an esterase activity in liquid medium (API-type strips)
- Assay type: cell-based
- Design: key: —: the symbol “-” corresponds to the absence of color or intensity; 0 corresponds to no activity; 0.1 corresponds to a trace of color; 0.5 corresponds to very pale coloration; 1 corresponds to clear but low-intensity coloration; 1.5 corresponds to a degree of coloration intermediate between scores 1 and 2; 2 corresponds to clear coloration of moderate intensity; 2.5 corresponds to a degree of coloration intermediate between scores 2 and 3; 3 corresponds to intense coloration; 3.5 corresponds to a degree of coloration intermediate between scores 3 and 4; 4 corresponds to very intense coloration
- details: IT 4 h, 37° C.
- Experimental: In Table 1 above, as in the following Tables, C represents the color of the colonies after incubation, I represents the intensity of the color, and the symbol “-” corresponds to the absence of color or intensity; finally, IT defines the incubation time. It should be noted that the intensity of the color is scored on an arbitrary scale but one which is consistent for all the biological specimens and media tested. […] The intensity of the color of the colonies was recorded.
readout.kind: I (intensity of the color)

In: Recall the recorded I (intensity of the color) for CC(=O)Oc1c[nH]c2ccccc12 [Y-C2, 3-Indolyl acetate] with Listeria monocytogenes ATCC 19115 and state it.
Out: 3

In: Recall the recorded I (intensity of the color) for CCCCCCCC(=O)Oc1c[nH]c2ccc(Br)c(Cl)c12 [X-C8, 5-Bromo-4-chloro-3-indolyl octanoate] with Listeria monocytogenes ATCC 19115 and state it.
Out: —

In: Recall the recorded I (intensity of the color) for CC(=O)Oc1c[nH]c2ccc(Br)c(Cl)c12 [X-C2, 5-Bromo-4-chloro-3-indolyl acetate] with Listeria monocytogenes ATCC 19115 and state it.
Out: 3

In: Recall the recorded I (intensity of the color) for CCCCCCCC(=O)Oc1c[nH]c2cc(Cl)ccc12 [Pink-C8, 6-Chloro-3-indolyl octanoate] with Listeria monocytogenes ATCC 19115 and state it.
Out: —

In: Recall the recorded I (intensity of the color) for CCCC(=O)Oc1c[nH]c2ccc(Br)c(Cl)c12 [X-C4, 5-Bromo-4-chloro-3-indolyl butyrate] with Listeria monocytogenes ATCC 19115 and state it.
Out: 1

Here's the next entry for you.
In: Recall the recorded I (intensity of the color) for CCCCCCCC(=O)Oc1c[nH]c2cc(Cl)c(Br)cc12 [Magenta-C8, 5-Bromo-6-chloro-3-indolyl octanoate] with Listeria monocytogenes ATCC 19115 and state it.
Out: —

Cited source: patent US7407775B2
